System: SF-539 CNS
procedure text: NCI-60 one-dose screen, 48 h (100 = growth as untreated, 0 = no growth, -100 = all killed)
applied conditions: 10 µM unless noted
About 83,000 compounds went through this panel and 20% of them were active in at least one assay; those are over-represented in the sample as a whole.
# label = Fulfilled if growth < 50% else Not fulfilled

1) NC(=O)c1c(NC(=O)c2ccc(C(F)(F)F)cc2)sc2c1CCC(=O)C2    Fulfilled
2) CCOC(=O)c1c(NCC(=O)Nc2cccc([N+](=O)[O-])c2)sc(C(C)=O)c1C    Fulfilled
3) O=C(Nc1cccc(Cl)c1)Nc1nc2cc([N+](=O)[O-])ccc2o1    Not fulfilled
4) Cc1ccc2c(n1)C(=O)C(Cl)=C(Nc1cc(C(F)(F)F)cc(C(F)(F)F)c1)C2=O    Not fulfilled
5) N#C/C(=N\Nc1ccc(F)cc1)C(=O)Nc1cc(-c2ccccc2)nn1-c1ccccc1    Fulfilled
6) COc1ccccc1/C=C1\Oc2ccc(O)c(O)c2C1=O    Not fulfilled
7) C#CCN(C)CCCOc1ccc(NC(=O)CCCCCCC(=O)NO)cc1Cl    Fulfilled
8) O=C(CCCCCCN1CC(=O)N2[C@@H](C3CC3)c3[nH]c4ccccc4c3C[C@H]2C1=O)NO    Not fulfilled

* * *

Test system: RPMI-8226 leukemia
procedure text: NCI-60 one-dose screen, 48 h
applied conditions: 10 µM unless noted
Compounds without any hit were thinned out: in the full panel of roughly 83,000, 20% have a hit. The source made the active and inactive calls. How the source made its calls: active means growth percent below 10; inactive means the rest.
Possible outcomes: 1 (yes) for active, 0 (no) for inactive

1) CCCCCN1C(=O)/C(=c2\sc3n(c2=O)C2C(NN=3)N(CC)C(=O)N2CC)c2cccc(C)c21 (configuration not stated)    0 (no)
2) N#C/C(=C\c1ccc(-c2ccc(Cl)c(Cl)c2)o1)C(=O)Nc1ncc(Cc2ccc(Cl)cc2)s1    0 (no)
3) O=S(=O)(NCCCNc1nccc(-c2[nH]c(-c3ccccc3)nc2-c2ccc(F)c(O)c2)n1)c1ccc(C(F)(F)F)cc1    0 (no)
4) CN1CCN(Cc2ccc(NC(=O)c3cncc(C#Cc4cnc5ccc(O[C@@H]6CCOC6)nn45)c3)cc2C(F)(F)F)CC1    1 (yes)
5) C#CCOc1ccccc1/C=N/Nc1nc(-c2ccc(Cl)cc2)cs1    0 (no)
6) CC(C)(C)c1cc(NC(=O)Nc2ccc(-c3cn4c5c(sc4n3)CCc3c[nH]cc3-5)cc2)no1    1 (yes)
7) CC(=O)Nc1nc(C)c(-c2csc(Nc3ccccc3)n2)s1    0 (no)
8) CC(=O)Nc1cc(N2CCOCC2)c2nc(NC(=O)c3[nH]c(C)c(Cl)c3Cl)sc2c1    0 (no)
9) C#C[C@]1(O)CC[C@H]2[C@@H]3CC=C4c5sc(Nc6cc(Cl)ccc6OC)nc5CC[C@]4(C)[C@H]3CC[C@@]21C    1 (yes)
10) COc1ccc(NC2=C(Br)C(=O)C(C)=C(C)C2=O)cc1OC    0 (no)
11) C#C[C@]1(O)CC[C@H]2[C@@H]3CC=C4c5sc(Nc6cccc(F)c6)nc5CC[C@]4(C)[C@H]3CC[C@@]21C    1 (yes)
12) C=C(C)[C@@H]1CC[C@]2(C(=O)O)CC[C@]3(C)[C@H](CC[C@@H]4[C@@]5(C)C/C(=C/c6ccccn6)C(=O)C(C)(C)[C@@H]5CC[C@]43C)[C@@H]12    0 (no)
13) Clc1cccc(/C=N/Nc2nc(N/N=C/c3cccc(Cl)c3)nc(N3CCOCC3)n2)c1    0 (no)
14) CN(C)c1ccc(-c2cc(-c3c[nH]c4ccccc34)nc(N)c2C#N)cc1    1 (yes)
15) COc1cc(NC(=O)Nc2cccc(-c3cc(=O)c4c(OC)c(OC)c(OC)cc4o3)c2)cc(OC)c1OC    0 (no)
16) N#Cc1nc(-c2ccc(Cl)cc2)oc1N1CCC(S(=O)(=O)N2CCOCC2)CC1    0 (no)
17) C#CCN(C)CCCOc1ccc(NCc2ccc(/C=C/C(=O)NO)cc2)cc1Cl    1 (yes)

* * *

Test system: NCI-H23 lung
procedure text: NCI-60 one-dose screen, 48 h (100 = growth as untreated, 0 = no growth, -100 = all killed)
applied conditions: 10 µM unless noted
Protocol: Growth inhibition of the NCI-H23 human Non-Small Cell Lung tumor cell line is measured as a screen for anti-cancer activity. Cells are grown in 96 well plates and exposed to the test compound for 48 hours. Compounds are tested at a single concentration, which is 10^-5 M for most compounds. The reported endpoint is percent growth (GI% or GIPRCNT), where numbers from 0 - 100% represent growth inhibition, and numbers from -100% - 0 represent cell death. […]
The panel holds about 83,000 compounds, 20% with a hit somewhere; the sample as a whole holds those more often.
The compounds listed here are annotated with their growth.
readout type: growth (%)

1. CS(=O)(=O)c1ccc(/C(=N/N=C(N)N)c2ccc(F)cc2)cc1    88.3
2. COC(=O)c1ccc(NC2=C(Cl)C(=O)c3nc(C)ccc3C2=O)cc1    54.8
3. CCCCCCNC(=O)Oc1ccc(/C(=C(/C)c2ccc(Cl)cc2)c2ccc(OCCN3CCCCCC3)cc2)cc1    52.2
4. CCC1=Cc2c(OC)cccc2OC12C=Cc1c(OC)cccc1O2 (configuration not stated)    39.7
5. Cn1cc(-c2nn3cc(-c4ccncc4)nc3s2)c2cc(Br)ccc21    63.1
6. NC(=O)n1c(=O)n(-c2cccc(C(F)(F)F)c2)c(=O)c2cc(-c3ccc(F)cc3F)ccc21    -6
7. Cc1ccc(Nc2nc(SC(C)C)nc(-c3ccccc3)c2C#N)cc1    86.1
8. COC(=O)[C@@H](Cc1c[nH]c2ccccc12)NC(=O)CCCCOc1cc(O)c2c(=O)cc(-c3ccccc3)oc2c1    35.2
9. COc1ccc(C2C(C#N)=C(/N=C/c3ccc(Cl)cc3)Oc3c2sc2c(C)cccc32)cc1 (configuration not stated)    26.2
10. CC(=C(c1ccc(OCCCN(C)C)cc1)c1ccc(OCCCN(C)C)cc1)c1ccc(Cl)cc1    84.8
11. COc1ccccc1/C=C1\Oc2ccc(O)c(O)c2C1=O    93.2
12. CN1CCN(c2ccc(Nc3nc(NCCCNS(=O)(=O)c4ccc(F)cc4)c4sccc4n3)cc2)CC1    87
13. CC1=C(C)C(=O)C(Nc2ccc3c(c2)OCO3)=C(Br)C1=O    90
14. N#Cc1c(-c2ccc(Br)cc2)cc(-c2c[nH]c3ccccc23)nc1N    51.3
15. C#CCOc1ccccc1C(OC(=O)c1ccccc1)C(=O)NC(C)(C)C(C)(C)C (configuration not stated)    82.4
16. C#CCN(C)CCCOc1ccc(NCc2ccc(/C=C/C(=O)NO)cc2)cc1Cl    -24
17. O=c1[nH][nH]c(-c2ccc(F)cc2)c1-c1nc2ccccc2s1    89.9
18. Nc1nc(=O)n([C@H]2C[C@H](O)[C@@H](CO)O2)cc1C=O    112
19. COc1ccccc1Cn1cc(C#N)c(N)c1C(=O)c1ccc(Br)cc1    91.8
20. Oc1ccc(-c2nc3ccc(/C(=N\N=C\c4ccc(Cl)cc4)c4ccccc4)cc3[nH]2)cc1    94.8
21. CCOC(=O)c1c(NC(=O)c2cccc(C(F)(F)F)c2)sc2c1CCC(=O)C2    16
22. C#Cc1cc(C(=O)Nc2ccc(CNCCN3CCOCC3)c(C(F)(F)F)c2)ccc1C    92.2
23. COc1ccc2c(c1)c(-c1nc(N)nnc1-c1c[nH]c3ccccc13)cn2C    47.7
24. CC(=O)OCCCCN1C=C/C(=C\C(=O)n2ccc3ccccc32)c2ccccc21    96.2
25. O=S(=O)(NCCCNc1nccc(-c2[nH]c(-c3ccccc3)nc2-c2ccc(F)c(O)c2)n1)c1cccc(F)c1    90.4
26. COc1ccc(OC)c(NC(=O)CCCCCCNC(=O)C(O)(O)C(F)(F)F)c1    48.6
27. Cn1cc(-c2cc3ncnc(Nc4ccc(NC(=O)Nc5cc(C(C)(C)C)on5)cc4)c3s2)cn1    29.4
28. COc1ccc(CC(C)=C(c2ccc(OCCN3CCCC3)cc2)c2ccc(OCCN3CCCC3)cc2)cc1    -82.4
29. COc1cc(-c2nc(-c3ccccc3)[nH]c2-c2ccnc(NCCCNS(=O)(=O)c3ccc(C)cc3)n2)ccc1F    103
30. COc1ccc(C(=O)c2c(N)c(C#N)cn2-c2ccc(Cl)cc2Cl)cc1    93.3
31. CC[C@]12C=CCN3CC[C@]4(C(=C(C(=O)OC)C1)Nc1cc5c(cc14)[C@@H]1[C@H](O5)[C@@H](O)[C@@]4(CC)CC(C(=O)OC)=C5Nc6cc(O)ccc6[C@@]56CCN1C46)C32 (some centres not stated)    -40.9
32. Cn1ncc2ncc(-c3ccc4ncc(C#N)c(N5CCc6cc(F)c(Cl)cc65)c4c3)cc21    46.8
